- Test system: Human immunodeficiency virus 1
- procedure-text: Antiviral activity against HIV1 subtype BC CNE30 pseudovirus assessed as inhibition of viral infection in Ghost (3)X4/R5 cells after 48 hrs by Bright-Glo luciferase reporter gene assay
- Type: functional, organism-based
- setup-conditions: Human immunodeficiency virus 1, subtype BC CNE30, 48 h
measured-attribute: pIC50
Scale: negative log10 of molar concentration, which is what pIC50 denotes.

Given the entry `Ac-MTWEEWDKKIEEYTKKIEELIKKS-NH2` , report its measured pIC50.
7.65
